Experiment: Biodistribution by gamma well counting at 90 min post-injection
Format: in vivo, Lewis rats
Details: Lewis, rat, lungs, iv, total radioactivity; 90 min after intravascular injection; read-out: uptake in lungs
Procedure: To assess blood clearance and organ uptake dynamic in vivo PET-CT imaging was performed followed by image processing and analysis. […] For biodistribution studies, all animals were euthanized at 90 min post-injection and selected organ samples were collected for gamma well counting analysis. All collected sections were weighed and the tissue radioactivity was measured with Wizard^2 gamma well counter (Perkin-Elmer, USA). […]
reported-metric: tissue uptake at […] (%ID/g)
API: value field is a number in %ID/g; no unit string.

Per the records, this compound ( N=C(N)NCCC[C@@H]1NC(=O)[C@H](CCCCNC(=O)COCCOCCn2cc(CNC(=O)CC[C@H](NC(=O)CCOCCOCCOCCOCCNC(=S)Nc3ccc(CC4CN(CC(=O)O)CCN(CC(=O)O)CCN4CC(=O)O)cc3)C(=O)NCc3cn(CCOCCOCC(=O)NCCCC[C@@H]4NC(=O)[C@@H](Cc5ccccc5)NC(=O)[C@H](CC(=O)O)NC(=O)CNC(=O)[C@H](CCCNC(=N)N)NC4=O)nn3)nn2)NC(=O)[C@@H](Cc2ccccc2)NC(=O)[C@H](CC(=O)O)NC(=O)CNC1=O (stereo partly shown) ) has tissue uptake at […] equal to 2.95

---

Experiment: Biodistribution by gamma well counting at 90 min post-injection
Format: in vivo, Lewis rats
Conditions: Lewis, rat, intestines, iv, total radioactivity; 90 min after intravascular injection; read-out: uptake in intestines
reported-metric: tissue uptake at […]

The molecule N=C(N)NCCC[C@@H]1NC(=O)[C@H](CCCCNC(=O)COCCOCCn2cc(CNC(=O)CC[C@H](NC(=O)CCOCCOCCOCCOCCNC(=S)Nc3ccc(CC4CN(CC(=O)O)CCN(CC(=O)O)CCN4CC(=O)O)cc3)C(=O)NCc3cn(CCOCCOCC(=O)NCCCC[C@@H]4NC(=O)[C@@H](Cc5ccccc5)NC(=O)[C@H](CC(=O)O)NC(=O)CNC(=O)[C@H](CCCNC(=N)N)NC4=O)nn3)nn2)NC(=O)[C@@H](Cc2ccccc2)NC(=O)[C@H](CC(=O)O)NC(=O)CNC1=O (stereo partly shown) showed tissue uptake at […] equal to 4.62 %ID/g
